Data origin: patent US20140357713A1

- assay: pH (Table 1)
- Type: physicochemical
Structures can show the parent of a compound that is named as a salt.
measurement.name: pH
// no unit, no text: just the number

INSERT INTO assay_data (compound, reported_measurement) VALUES
  ('CCCCCCCCCCCCCCOC(=O)C(C)N(C)C (stereo not shown) [Nex-66, hydrochloride]', 2.35),
  ('CCCCCCCCCCCCOC(=O)C(C)N(C)C (stereo not shown) [Nex-30]', 3.79),
  ('CCCCCCCCCCCC(C)(C)OC(=O)C(C)N(C)C.Cl (stereo not shown)', 1.66),
  ('CCCCCCCCCCCC(C)OC(=O)C(C)N(C)C (stereo not shown) [Nex-64, hydrochloride]', 1.95),
  ('CCCCCCCCCCCCOC(=O)C(C)(C)N(C)C [Nex-58, hydrochloride]', 2.27),
  ('CCCCCCCCOC(=O)C(C)N(C)C (stereo not shown) [Nex-70, hydrochloride]', 0.88),
  ('CCCCCCCCCCCCOC(=O)C(C)NC.Cl (stereo not shown)', 2.17),
  ('CCCCCCCCCCCCOC(=O)C(C)NCCO.Cl (stereo not shown)', 1.50),
  ('CCCCCCCCCCCCOC(=O)C(Cc1ccccc1)N(C)C (stereo not shown) [Nex-54, hydrochloride]', 2.16),
  ('CCCCCCCCCCCCOC(=O)C(C)NC(C)C.Cl (stereo not shown)', 2.04);

Tell us which pH value is on record for CCCCCCCCCCCCCOC(=O)C(C)N(C)C (stereo not shown) [Nex-69, hydrochloride]
1.64

Tell us which pH value is on record for CCCCCCCCCCCCOC(=O)C(CC(C)C)N(C)C (stereo not shown) [Nex-55, hydrochloride]
1.84

Tell us which pH value is on record for CCCCCCCCCCCCOC(=O)C(C(C)C)N(C)C (stereo not shown) [Nex-53, hydrochloride]
1.69

----------
The entries below are paired with their reported MIC.
- System: Candida albicans (ATCC 90029)
- assay: Minimum inhibitory concentration (MIC) assay, Example 33
- Format: cell-based
- conditions.used: Candida albicans, ATCC90029, Table 19 summary
Counter-ions that a name gives are not always drawn.
Supply the numeric figure in µg/mL, leaving out any unit text.

INSERT INTO measurements (compound, reported_measurement) VALUES
  ('CCCCCCCCCCCCOC(=O)C(Cc1ccccc1)N(C)C (stereo not drawn) [Nex-54, hydrochloride]', 6250);

Tell us which MIC value is on record for CCCCCCCCCCCOC(=O)C(C)N(C)C (stereo not drawn) [Nex-67, hydrochloride]
6250
